test system: levels of triglycerides, cholesterol and total lipids; experiment: Hypolipemiant activity: plasma lipid levels in rats on a saccharose and cholesterol-rich regime, 10 days treatment; assay type: in vivo, male rats of the Sprague Dawley S.P.F. strain; details: 2 mg/kg/day, esophague tube, vs untreated controls
// reported % Variation of levels, Cholesterol for each item listed
Entry rule: numbers only, all in %.

Consider the worked cases shown below.
Query: Output reported % Variation of levels, Cholesterol of the compound CC1(c2ccccc2)OC(C(=O)O)Oc2ccc(Cl)cc21 (racemic) [Example 3] on levels of triglycerides, cholesterol and total lipids.
Reply: -36

Query: For levels of triglycerides, cholesterol and total lipids, give % Variation of levels, Cholesterol of the listed compound: CC1(c2ccccc2)OC(C(=O)O)Oc2ccc(Cl)cc21 (single isomer, unassigned) [18 Isomer A 1 form]
Reply: -47

Query: With levels of triglycerides, cholesterol and total lipids as the test system, provide measured % Variation of levels, Cholesterol for this compound: CC1(c2ccccc2)OC(C(=O)O)Oc2ccc(Cl)cc21 (single isomer, unassigned) [17 Isomer A]
Reply: -43

Then this compound:
Query: Provide % Variation of levels, Cholesterol, system levels of triglycerides, cholesterol and total lipids, entry CCOC(=O)C1Oc2ccc(Cl)cc2C(C)(c2ccccc2)O1 (single isomer, unassigned) [16 Isomer A]
Reply: -17

---

assay: Acute toxicity in mice (intraperitoneal, DL50); assay type: in vivo; settings: mouse, in vivo, ip, observed for one week
Parameter LD50 at 168 h: see the listing below.

Reference set (5 entries):
Query: Give reported LD50 at 168 h value for CC1(c2cccc(Cl)c2)OC(C(=O)O)Oc2ccc(Cl)cc21 (single isomer, unassigned) [21 Isomer A]
Reply: ~150 mg/kg

Query: Supply measured LD50 at 168 h of CC1(c2ccccc2)OC(C(=O)O)Oc2ccc(Cl)cc21 (single isomer, unassigned) [17 Isomer A] in your reply.
Reply: ~200 mg/kg

Query: Provide only the value of recorded LD50 at 168 h for CN(C)CCOC(=O)C1Oc2ccc(Cl)cc2C(C)(c2ccccc2)O1 (single isomer, unassigned) [41 Isomer A]
Reply: ~200 mg/kg

Query: Retrieve LD50 at 168 h measured for CCOC(=O)C1Oc2ccc(Cl)cc2C(C)(c2ccccc2)O1 (single isomer, unassigned) [16 Isomer A] and print it.
Reply: ~800 mg/kg

Query: Write down LD50 at 168 h measured for item COC(=O)C1Oc2ccc(Cl)cc2C(C)(c2cccc(Cl)c2)O1 (single isomer, unassigned) [20 Isomer A]
Reply: ≤ 1000 mg/kg

New cases:
Query: Tell me its LD50 at 168 h given CC1(c2ccccc2)OC(C(=O)O)Oc2ccc(Cl)cc21 (single isomer, unassigned) [18 Isomer A 1 form] as the entry.
Reply: ~250 mg/kg

Query: Look up LD50 at 168 h of CC1(c2ccccc2)OC(C(=O)O)Oc2ccc(Cl)cc21 (racemic) [Example 1] and report it.
Reply: 130 mg/kg
